Target: LMP7 (purified human immuno proteasome) (Homo sapiens)
Assay: Determination of LMP7 activity (fluorescence intensity assay, Suc-LLVY-AMC)
Type: biochemical
Settings: long incubation: 120 min at 25° C.; read-out: LMP7 IC50 (M) (long)
RECORDED METRIC: IC50

Looking up O=C(N[C@@H](CC1CCCCC1)B(O)O)[C@@H]1C[C@H]2CC[C@@H]1O2 , I see its IC50 listed as 5e-07 to 5e-06 M

---

Molecular target: LMP7 (purified human immuno proteasome) (Homo sapiens)
Test: Determination of LMP7 activity (fluorescence intensity assay, Suc-LLVY-AMC)
Type: biochemical
Conditions: incubation for 20 minutes at 25° C.; concentrations 30 μM to 15 pM; read-out: LMP7 IC50
RECORDED METRIC: IC50

The examples below pair each entry with its known result.
[[record]]
molecule = "CC(C)C[C@H](NC(=O)[C@@H]1C[C@H]2CC[C@@H]1O2)B(O)O"
recorded_result = "0.5 to 5 µM"

[[record]]
molecule = "O=C(N[C@@H](CCc1ccccc1)B(O)O)[C@@H]1C[C@H]2CC[C@@H]1O2"
recorded_result = "0.5 to 5 µM"

[[record]]
molecule = "C[C@@]12CC[C@@](C(=O)N[C@@H](C[C@@H]3COc4ccccc43)B(O)O)(O1)c1ccccc12"
recorded_result = "< 0.05 µM"

[[record]]
molecule = "Cc1cccc2c(C[C@H](NC(=O)[C@]34CC[C@H](O3)c3ccccc34)B(O)O)coc12"
recorded_result = "< 0.05 µM"

[[record]]
molecule = "Cc1cccc2c(C[C@H](NC(=O)[C@@]34CC[C@@H](O3)c3ccccc34)B(O)O)coc12"
recorded_result = "< 0.05 µM"

[[record]]
molecule = "C[C@]12CC[C@](C(=O)N[C@@H](C[C@@H]3COc4ccccc43)B(O)O)(O1)c1ccccc12"
recorded_result = "< 0.05 µM"

[[record]]
molecule = "O=C(N[C@@H](Cc1coc2ccccc12)B(O)O)C1C[C@@H]2O[C@H]1c1ccccc12 (some centres unmarked)"
recorded_result = "< 0.05 µM"


Now look at this one.
Looking up O=C(N[C@@H](C[C@@H]1COc2ccccc21)B(O)O)[C@@]12CC[C@@H](O1)c1ccccc12 , I see its IC50 listed as < 0.05 µM

---

Quick reference for IC50 among some compounds
Target: Beta5 (purified human constitutive proteasome) (Homo sapiens, UniProt P28074)
Assay: Determination of Beta5 activity (fluorescence intensity assay, Suc-LLVY-AMC)
Assay type: biochemical
Conditions: incubation for 20 minutes at 25° C.; concentrations 30 μM to 15 pM; read-out: Beta5 IC50

Measured IC50 for this entry CC(C)C[C@H](NC(=O)[C@@H]1C[C@H]2CC[C@@H]1O2)B(O)O on Beta5 (purified human constitutive proteasome) (Homo sapiens, UniProt P28074): > 30 µM

Measured IC50 for this entry Cc1cccc2c(C[C@H](NC(=O)[C@@]34CC[C@@H](O3)c3ccccc34)B(O)O)coc12 on Beta5 (purified human constitutive proteasome) (Homo sapiens, UniProt P28074): 5 to 30 µM

Measured IC50 for this entry Cc1cccc2c1OC[C@H]2C[C@H](NC(=O)[C@@H]1C[C@H]2CC[C@@H]1O2)B(O)O on Beta5 (purified human constitutive proteasome) (Homo sapiens, UniProt P28074): 5 to 30 µM
